Target: 6xHis-CerM (Cereibacter sphaeroides WS8N)
Sequence: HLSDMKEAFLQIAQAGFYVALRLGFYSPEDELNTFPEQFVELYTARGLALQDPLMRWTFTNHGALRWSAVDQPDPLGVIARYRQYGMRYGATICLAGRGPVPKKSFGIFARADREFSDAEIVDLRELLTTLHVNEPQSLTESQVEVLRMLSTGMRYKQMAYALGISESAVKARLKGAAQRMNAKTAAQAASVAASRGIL
Test: EMSA
Conditions: 10 mM Tris pH 7.5, 1 mM EDTA, 0.1 M KCl, 0.1 mM DTT, 5% glycerol, 0.10 mg/mL BSA, 20 min room temperature; 50 ng DNA, 50-200 ng CerM; 4% native gel in TAE pH 7.
QUANTITY: binding

Problem: Look up binding with 6xHis-CerM (Cereibacter sphaeroides WS8N) for this sequence: GTGGGCGTCGACGGGATGTTTCATGAAATGTCTCCGTAAATCTTCCAGCTGTCCCTGCCCGGATAACAAGCATATTGTGTGCCAAAACCCCGCCCGACGTCCAATTCCATCCAGAAAAACTTGTCTTGA (double strand) [14710 fragment C (129 bp)]
Result: no binding

Problem: Please state recorded binding (tested on 6xHis-CerM (Cereibacter sphaeroides WS8N)) of GCGAATTCAAGGTCACGATGATCCAGAAATATCGGCAACTTTAGATTGTATTCAGCTTCGCCTATGCGAGAGTAACTCATGATTAACCATTGGGCATCATTGTAGTTAATACCTAGGGTGGCGATGCGGAGCGCGAGTGATGAGAATACTGCTGGTGGAGGATGATCCGACCACGTCCCGCAGCATCGAATTGATGCTGACTCATGCGAACCTGAACGTCTATTGCACCGATCTCGGCGAGGACGGGATCGATCTGGCCAAGCTCTACGATTACGATCTCATCCTGCTGAGCTCGC (double strand) [ctrA control region (281 bp)]
Result: no binding

Problem: Fill in the recorded binding for this sequence, with 6xHis-CerM (Cereibacter sphaeroides WS8N) as test system: CCCGAATATTCGCGACTTGCAAAGTTTCGGCGGCGAATTCGCTGCAAATTGCATTGCAGAATGCAAAAGACCTCAGAGGCGAGTGACGTGTCTCCCGTGCTCCCGAGGGATGATCCACAGCGGCGGACGCCGAACGAACCCAGCTTGTATGAATGGACATATCCAAAAAGACAGGTTTGTTTCAAGACAAG (double strand) [14710 fragment D (191 bp)]
Result: binds
